assayed_system: bovine serum albumin (BSA) (Bos taurus, UniProt P02769)
Construct: purchased Sigma Aldrich
Sequence (P02769 25-607): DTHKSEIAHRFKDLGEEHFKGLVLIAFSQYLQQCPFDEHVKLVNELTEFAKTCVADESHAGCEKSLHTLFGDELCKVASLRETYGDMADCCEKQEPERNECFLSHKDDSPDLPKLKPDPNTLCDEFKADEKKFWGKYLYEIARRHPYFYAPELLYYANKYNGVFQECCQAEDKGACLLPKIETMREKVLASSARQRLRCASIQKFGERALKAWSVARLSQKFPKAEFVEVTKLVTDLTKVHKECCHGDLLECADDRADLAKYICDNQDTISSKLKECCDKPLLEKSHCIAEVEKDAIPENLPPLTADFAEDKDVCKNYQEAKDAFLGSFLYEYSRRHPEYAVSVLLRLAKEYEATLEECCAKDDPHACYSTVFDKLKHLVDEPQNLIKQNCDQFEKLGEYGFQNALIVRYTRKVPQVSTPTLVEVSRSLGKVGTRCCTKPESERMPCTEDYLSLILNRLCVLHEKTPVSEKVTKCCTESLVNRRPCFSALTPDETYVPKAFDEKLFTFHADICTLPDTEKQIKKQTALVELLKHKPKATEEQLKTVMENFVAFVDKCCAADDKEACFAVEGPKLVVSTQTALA
assay_method_text: RP TLC on plates impregnated with bovine serum albumin
Type: binding
measurement_parameters: Table S4, RP plate impregnated with 2 mg/mL BSA; pH 7.4 mobile phase
Cut-off 0.8 on RP (Rf, BSA-impregnated RP plate): below means y, at or above means n.

Completed entries (count: 3):
- compound: "C[C@](N)(Cc1ccc(O)c(O)c1)C(=O)O [methyldopa]"
  assayed_system: "bovine serum albumin (BSA) (Bos taurus, UniProt P02769)"
  assigned_class: "n"
- compound: "CO/N=C(\\C(=O)N[C@@H]1C(=O)N2C(C(=O)O)=C(COC(N)=O)CS[C@H]12)c1ccco1 [cefuroxime]"
  assayed_system: "bovine serum albumin (BSA) (Bos taurus, UniProt P02769)"
  assigned_class: "n"
- compound: "OC(CNCC(O)C1CCc2cc(F)ccc2O1)C1CCc2cc(F)ccc2O1 (centres unmarked) [nebivolol]"
  assayed_system: "bovine serum albumin (BSA) (Bos taurus, UniProt P02769)"
  assigned_class: "y"

Query block: is_below(RP (Rf, BSA-impregnated RP plate), 0.8) for CC(C)NCC(O)COc1ccc(CCOCC2CC2)cc1 (centres unmarked) [betaxolol] ?
Result block: y

Query block: Does the reported RP (Rf, BSA-impregnated RP plate) of the following compound sit strictly below 0.8? O=C(CCCN1CCC(O)(c2ccc(Cl)cc2)CC1)c1ccc(F)cc1 [haloperidol]
Result block: y

Query block: # strict comparison: is reported RP (Rf, BSA-impregnated RP plate) < 0.8? input = CCCN1C[C@H](CSC)C[C@@H]2c3cccc4[nH]cc(c34)C[C@H]21 [pergolide]
Result block: y

Query block: Given CN(C)CCc1c[nH]c2ccc(C[C@H]3COC(=O)N3)cc12 [zolmitriptane] , is recorded RP (Rf, BSA-impregnated RP plate) strictly lower than 0.8?
Result block: n

Query block: Is RP (Rf, BSA-impregnated RP plate) of CC(C)NCC(O)COc1ccc(COCCOC(C)C)cc1 (centres unmarked) [bisoprolol] strictly below 0.8?
Result block: y

----------
assayed_system: human serum albumin (HSA) (Homo sapiens)
Sequence (P02768 25-609): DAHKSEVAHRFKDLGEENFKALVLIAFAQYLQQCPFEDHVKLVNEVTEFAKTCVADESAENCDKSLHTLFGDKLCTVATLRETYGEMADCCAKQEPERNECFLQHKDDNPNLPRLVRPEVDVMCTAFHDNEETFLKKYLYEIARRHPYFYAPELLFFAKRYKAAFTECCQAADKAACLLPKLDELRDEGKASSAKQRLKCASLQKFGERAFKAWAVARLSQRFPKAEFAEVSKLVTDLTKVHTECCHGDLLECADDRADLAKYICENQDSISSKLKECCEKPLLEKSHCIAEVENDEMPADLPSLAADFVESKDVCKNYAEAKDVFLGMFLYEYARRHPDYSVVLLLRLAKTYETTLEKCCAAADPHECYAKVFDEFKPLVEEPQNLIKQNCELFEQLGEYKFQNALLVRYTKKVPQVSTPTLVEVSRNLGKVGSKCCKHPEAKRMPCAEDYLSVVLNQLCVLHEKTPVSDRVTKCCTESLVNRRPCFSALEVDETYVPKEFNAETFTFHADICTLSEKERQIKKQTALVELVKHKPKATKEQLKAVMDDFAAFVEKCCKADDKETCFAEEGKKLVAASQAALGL
measurement_parameters: Table S5, retention factor, HSA column, pH 7.4, 25 degrees Celsius
# maps each entry to its k HSA
I only need the number, thanks.

- compound: "OCCOCCN1CCN(C(c2ccccc2)c2ccc(Cl)cc2)CC1 (stereo not drawn) [hydroxyzine]"
  assay_metric: "k HSA"
  value_reported: 3.69
- compound: "CN1CCN2c3ncccc3Cc3ccccc3C2C1 (stereo not drawn)"
  assay_metric: "k HSA"
  value_reported: 2.96

Query block: Find the measured k HSA of CC1(C)S[C@@H]2[C@H](NC(=O)[C@H](N)c3ccc(O)cc3)C(=O)N2[C@H]1C(=O)O and report it.
Result block: 0.94

Query block: Query k HSA for Fc1ccc([C@@H]2CCNC[C@H]2COc2ccc3c(c2)OCO3)cc1
Result block: 5.96

Query block: Give the reported value of k HSA for this record: NC(N)=Nc1nc(CSCCC(N)=NS(N)(=O)=O)cs1
Result block: 0.99

Query block: Note down k HSA recorded for O=c1n(CCCN2CCN(c3cccc(Cl)c3)CC2)nc2ccccn12
Result block: 2.22

Query block: Tell me k HSA reported for Cc1cncc(CN2CCC(=C3c4ccc(Cl)cc4CCc4cccnc43)CC2)c1
Result block: 12.38

Query block: Give the value of k HSA reported for the following: OCCOCCN1CCN(C2=Nc3ccccc3Sc3ccccc32)CC1
Result block: 2.48

Query block: Look up k HSA of OC(CNCC(O)C1CCc2cc(F)ccc2O1)C1CCc2cc(F)ccc2O1 (stereo not drawn) and report it.
Result block: 7.49
